Experiment: Plasma VPA levels and pharmacokinetics (Example 1)
Assay type: in vivo, swine
Settings: swine, plasma, intravenous, 150 mg/kg, plasma VPA level, VPA 150 (injured); 5 hours after VPA infusion start
measurement-kind: concentration at 5 h (µg/mL)
Write the value in µg/mL as a bare number.

Q. Tell us which concentration at 5 h value is on record for CCCC(CCC)C(=O)O
A. 114

###

Test: Serum VPA after IO versus IV infusion (Example 2)
Format: in vivo
Conditions: swine, other: intraosseous (IO needle in the left humeral head), IO group, 150 mg/kg over 3 hours
measurement-kind: AUC

Q. Output measured AUC for this item: CCCC(CCC)C(=O)O
A. 301 to 470 µg·h/mL

###

Assay: Plasma VPA levels and pharmacokinetics (Example 1)
Format: in vivo, swine
Conditions: pig, in vivo, iv, 150 mg/kg, Sham VPA (uninjured, 150 mg/kg over 3 h); read-out: Volume of distribution (Vd)
measurement-kind: Vd (L)
// units = L; emit number, no label

Q. Provide Vd value for the following compound: CCCC(CCC)C(=O)O [VPA, valproic acid]
A. 12.1
